# Tested on: E18 rat cortical neuron-glia co-culture;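 further: MBP fiber length per Olig2+ nucleus over MBP area × intensity per Olig2+ nucleus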
# Assay Summary: fiber score / MBP score (myelination specific beyond OL differentiation) (ratio); higher = more myelination-specific MBP alignment
# Study Conditions: 1 µM; treatment time: 8 days (DIV5-DIV13)
Readout Kind: fiber score / MBP score
Reply with just the number.

Entry CCC(COC(=O)c1cc(OC)c(OC)c(OC)c1)(c1ccccc1)N(C)C (stereo not drawn) has what fiber score / MBP score? 0.423

Entry `C[C@]12C/C(=C/O)C(=O)C[C@@H]1CC[C@@H]1[C@@H]2CC[C@@]2(C)[C@H]1CC[C@]2(C)O` has what fiber score / MBP score? 0.813

Entry `CC(=O)O[C@H]1C[C@@H]2CC[C@@H]3[C@H](CC[C@@]4(C)[C@H]3C[C@H]([N+]3(C)CCCCC3)[C@@H]4OC(C)=O)[C@@]2(C)C[C@@H]1[N+]1(C)CCCCC1` has what fiber score / MBP score? 0.692
